- Test context: buffer; pH 7.4; 200.0 µM
Readout kind: solubility kinetic (µg/mL)
Numeric only. Scale: µg/mL

Documented solubility kinetic of Cc1ccc2oc(=O)n(Cc3ccc(OC(C)C)cc3)c2c1 : 1

Query CCOC(=O)c1ccccc1NC(=O)Cc1ccc(OC)c(S(=O)(=O)N2CCOCC2)c1 yields solubility kinetic of 60.4

Sure, the documented solubility kinetic for C=CCOc1cccc(C(=O)NC(c2ccccc2)C(C)C)c1 (stereo not drawn) is 1.2

Field solubility kinetic (entry Cc1ccc(NC(=O)C2CCCN(c3ncccn3)C2)c(C)c1 (stereo not drawn) ) reads 8.5

solubility kinetic reported for this compound O=C(COC(=O)Cc1ccccc1F)Nc1ccc(F)cc1F : 47.9
